experiment: yeast display, Sf9 membrane polyspecificity reagent, FACS + sequencing; frameworks hold sequencing errors
PARAMETER_MEASURED: polyreactivity (PSR sort gate)

Would you please look over these solved cases?
QVQLVESGGGLVQAGGSLRLSCAASGFTFWTYAMGWYRQAPGKERELVAAITGIGGSTYYADSVKGRFTISRDNAKNTVYLQMNSLKPEDTAVYYCAARYQATYPSMGYWGQGTQVTVSS | low polyreactivity
QVQLVESGGGLVQPGGSLRLSCAASGFIFYYYAMGWYRQAPGKERELVAVLTESGSSTYYADSVKGRFTISRDNAKNTVYLQMNSLKPEDTAVYYCNADFWPYTGKYDYWGQGTQVTVSS | low polyreactivity
QVQLVESGGGLVQAGGSLRLSCAASGFTFTAYAMGWYRQAPGKERELVAAISYRGGRTNYAYSVKGRFTISRDYAKYTVYLQMNSLKPEDTAVYYCAARPRISTREMDYWGQGTQVTVSS | high polyreactivity
QVQLVESGGGLVQAGGSLRLSCAASGSTFFTNVMGWYRQAPGKERELVAVIRWRGSDTYYADSVKGRFTISRDNAKNTVYLQMNSLKPEDTAVYYSNAKESFYPTTGEQGYSYDYWGQGTQVTVSS | low polyreactivity
QVQLVESGGGLVQAGGSLRLSCAASGFTFHYYAMGWYRQAPGKEWELVAAITKSGGRTSYADSVKGRFTISRDNAKNTVYLQMNSLKPEDTAVYYCAAARYRARIGNDYWGQGTQVTVSS | low polyreactivity
QVQLVESGGGLVQAGGSLRLSCAASGSILAYYGMGWYRQAPGKEREFVAAISNRGGSTYYADSVKGRFTISRDNAKNTVYLQLNSLKPEDTAVYYCARELYRRVWHHWAYWAAYDYWGQGTQVTVSS | low polyreactivity

Give its polyreactivity (PSR sort gate) value. Item: QVQLVESGGGLVQAGGSLRLSCAASGRTFVSYAMGWYRQAPGKERELVAAIRWGTGSRTYYADSVKGRFTISRDNAKNTVYLQMNSLKPEDTAVYYCAKTDWYPYGYWGQGTQVTVSS
low polyreactivity

Give its polyreactivity (PSR sort gate) value. Item: QVQLVESGGGLVQAGGSLRLSCAASGYTFPIYAMGWYRQAPGKERELVATISSGGRTNYADSVKGRFTISRDNAKNTVYLQMKSLKPEDTAVSYCNARRLGWHALYLYDYWGQGTQVTVSS
high polyreactivity

Give its polyreactivity (PSR sort gate) value. Item: QVQLVESGGGLVQAGGTLRLSCAASGRIFVINTMGWYRQAPGKERELVAAISRGGSTNYADSLKGRFTISRDNAKNTVYLQMNSLKPEDTAVYYCAATGYILFAGGGYDYWGQGTQVTVSS
low polyreactivity

Give its polyreactivity (PSR sort gate) value. Item: QVQLVESGGGLVQAGGSLRLSCAASGGTFNGNTMGWYRQAPGKERELVAVIDWSGGSTYYADSVKGRFTISRDNAKNTVYLQMNSLKPEDTAVYYYNADSDAQFREPKGLYYWGQGTQVTVSS
low polyreactivity

Give its polyreactivity (PSR sort gate) value. Item: QVQLVESGGGLVLAGGSLRLSCAASGSTFGGYAMGWYRQATGKERELVAAISGSGVRTYYADSVKGRFTISRDNAKNTVYLQMNSRKPEDTAVYYCAKRVRYPGDRYYYWGQGTQVTVSS
high polyreactivity

Cited source: the nanobody polyreactivity screen of Harvey et al. (2022)
